B1: VH:VL chains; a variant is named by its letters at X, in order (parent)
chain 1: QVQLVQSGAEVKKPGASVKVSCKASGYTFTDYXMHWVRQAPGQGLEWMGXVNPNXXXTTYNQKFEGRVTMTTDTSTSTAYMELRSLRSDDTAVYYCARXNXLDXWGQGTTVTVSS
chain 2: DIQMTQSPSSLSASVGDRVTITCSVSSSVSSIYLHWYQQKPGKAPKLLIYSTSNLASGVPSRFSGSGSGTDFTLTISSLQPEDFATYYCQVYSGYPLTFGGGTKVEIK

- Variants of: B1
- assay_procedure: yeast display scFab, FACS + sequencing
- condition_summary: with MET
Some of the results follow. How many sequences the whole screen found active is unknown.

mutation_name: YKRGGAVV
antigen binding call: binds
--
mutation_name: DARGGAVV
antigen binding call: no binding
--
mutation_name: YTATGFAV
antigen binding call: no binding
--
mutation_name: FRGRGSVS
antigen binding call: binds
--
mutation_name: YRAGGFVV
antigen binding call: binds
--
mutation_name: SRGRGAGF
antigen binding call: binds
--
mutation_name: VRAGGDLA
antigen binding call: no binding
--
mutation_name: YKRGSAWD
antigen binding call: binds
--
mutation_name: YKRGDAWA
antigen binding call: binds
--
mutation_name: FRGRGAWS
antigen binding call: binds
--
mutation_name: YKEEDDAV
antigen binding call: no binding
--
mutation_name: FKTKDSVV
antigen binding call: no binding
--
mutation_name: FTGRAYGF
antigen binding call: no binding
--
mutation_name: YKAKGSAV
antigen binding call: binds
--
mutation_name: FRRGSSVV
antigen binding call: binds
--
mutation_name: FRGRDSWS
antigen binding call: binds
--
mutation_name: YRGASAAA
antigen binding call: binds
--
mutation_name: DRAGDDLA
antigen binding call: no binding
--
mutation_name: YKTRDDAV
antigen binding call: no binding
--
mutation_name: YRGAGAAA
antigen binding call: binds
--
mutation_name: YRGKAAGD
antigen binding call: binds
--
mutation_name: VEERDAVA
antigen binding call: no binding
--
mutation_name: YRGKASGD
antigen binding call: binds
--
mutation_name: YRAGDSSA
antigen binding call: binds
--
mutation_name: FRRGGAAA
antigen binding call: binds
--
mutation_name: FEATASWS
antigen binding call: no binding
--
mutation_name: YRGRASVV
antigen binding call: binds
--
mutation_name: YRARGSAV
antigen binding call: binds
--
mutation_name: YRGRGVAA
antigen binding call: binds
--
mutation_name: YGGGGAVA
antigen binding call: no binding
--
mutation_name: STRGADAV
antigen binding call: no binding
--
mutation_name: YAEEGVGY
antigen binding call: no binding
--
mutation_name: YRAGGYAA
antigen binding call: binds
--
mutation_name: YTRGNAWA
antigen binding call: no binding
--
mutation_name: YRGAGYAA
antigen binding call: no binding
--
mutation_name: YEKETVVA
antigen binding call: no binding
--
mutation_name: YGGRGAVA
antigen binding call: binds
--
mutation_name: YKGAGDVV
antigen binding call: no binding
--
mutation_name: SAGRGFGF
antigen binding call: no binding
--
mutation_name: YRAKGSAV
antigen binding call: binds
--
mutation_name: YRTGDSSA
antigen binding call: binds
--
mutation_name: VAGAGAGA
antigen binding call: no binding
--
mutation_name: FRGRDYGS
antigen binding call: no binding
--
mutation_name: VTGRGDLA
antigen binding call: no binding
--
mutation_name: YRRGDFWA
antigen binding call: no binding
--
mutation_name: YKRGDAWD
antigen binding call: binds

Every entry's value here was drawn from the emibetuzumab library of Makowski et al. (2022).
